Measured IC50, listed per entry for reference.
System: glioma U87
assay: In vitro cytotoxicity, Alamar blue assay, U87
Type: cell-based, human
reported conditions: Table 6, 72 h
Field format: number, assumed µM, no unit text.

N.N.[Cl][Pt][Cl] [Cisplatin, reference compound]	54.6

Q: Query the reported IC50 for glioma U87; item: CCNC(=O)OCc1c(COC(=O)NCC)c2sc3ccccc3n2c1-c1ccc(F)cc1 [Compound 19b]
A: 29.2

Q: Next molecule up: CCNC(=O)OCc1c(COC(=O)NCC)c2sc3ccccc3n2c1-c1ccc(F)c(F)c1 [Compound 19d]
A: 38.5

====

assay readout: melting point

// worked examples, melting point included
COc1ccc(-c2c(CO)c(CO)c3sc4ccccc4n23)cc1OC [Compound 18h]	215 to 216 °C
OCc1c(CO)c2sc3ccccc3n2c1-c1ccc(Cl)c(Cl)c1 [Compound 18e]	159 to 160 °C
OCc1c(CO)c2sc3ccccc3n2c1-c1ccc(F)c(Cl)c1 [Compound 18f]	178 to 179 °C
COc1cc(-c2c(CO)c(CO)c3sc4ccccc4n23)cc(OC)c1OC [Compound 18i]	160 to 161 °C
Cn1c2c(c3ccccc31)Cc1c(CO)c(CO)c(-c3ccc(F)c(F)c3)n1C2 [Compound 26e]	195 to 196 °C
CCn1c2c(c3ccccc31)Cc1c(CO)c(CO)c(C)n1C2 [Compound 33b]	216 to 217 °C
Cc1c(CO)c(CO)c2n1Cc1c(c3ccccc3n1C)C2 [Compound 33a]	200 to 201 °C
Cn1c2c(c3ccccc31)Cc1c(CO)c(CO)c(-c3ccc(Cl)cc3)n1C2 [Compound 26d]	238 to 239 °C

Q: Requested read-out: melting point. Entry: Cn1c2c(c3ccccc31)Cc1c(CO)c(CO)c(-c3ccc(F)cc3)n1C2 [Compound 26c]
A: 240 to 241 °C

Q: Next molecule up: Cn1c2c(c3ccccc31)Cc1c(CO)c(CO)c(-c3ccccc3)n1C2 [Compound 26b]
A: 122 to 123 °C

====

Measured IC50, listed per entry for reference.
Tested on: human lymphoblastic leukemia (CCRF-CEM)
assay: In vitro cytotoxicity, XTT assay, CCRF-CEM
Type: cell-based
reported conditions: Homo sapiens, CCRF-CEM, Table 7, 72 h, read-out: IC50 (μM) CCRF/CEM
Field format: number, assumed µM, no unit text.

// worked examples, IC50 included
Cn1c2c(c3ccccc31)Cc1c(CO)c(CO)c(-c3ccc(Cl)cc3)n1C2 [Compound 26d]	4.58
CCn1c2c(c3ccccc31)Cc1c(CO)c(CO)c(C)n1C2 [Compound 33b]	0.1

Proceeding to the next compound to report its IC50.
Q: Requested read-out: IC50. Entry: Cc1c(CO)c(CO)c2n1Cc1c(c3ccccc3n1C)C2 [Compound 33a]
A: 0.042

====

Test system: breast carcinoma MX-1
assay: In vitro cytotoxicity, SRB assay, MX-1
Format: cell-based, human
reported conditions: Homo sapiens, Table 7, 72 h
assay readout: IC50 (µM)
Field format: number, assumed µM, no unit text.

Cn1c2c(c3ccccc31)Cc1c(CO)c(CO)c(-c3ccc(Cl)cc3)n1C2 [Compound 26d]	11.3

Q: Requested read-out: IC50. Entry: Cc1c(CO)c(CO)c2n1Cc1c(c3ccccc3n1C)C2 [Compound 33a]
A: 0.22

====

Tested on: non-small cell lung carcinoma H1299
assay: In vitro cytotoxicity, Alamar blue assay, H1299
Assay type: cell-based, human
reported conditions: Table 6, 72 h
Measured IC50, listed per entry for reference.
Field format: number, assumed µM, no unit text.

// worked examples, IC50 included
N.N.[Cl][Pt][Cl] [Cisplatin, reference compound]	16.5
CC(C)NC(=O)OCc1c(COC(=O)NC(C)C)c2sc3ccccc3n2c1C1CC1 [Compound 20j]	20.4
CCNC(=O)OCc1c(COC(=O)NCC)c2sc3ccccc3n2c1-c1ccc(Cl)cc1 [Compound 19c]	4.33
CCNC(=O)OCc1c(COC(=O)NCC)c2sc3ccccc3n2c1C1CC1 [Compound 19j]	20.6
CCNC(=O)OCc1c(COC(=O)NCC)c2sc3ccccc3n2c1-c1ccc(OC)cc1 [Compound 19g]	8.85

Q: Requested read-out: IC50. Entry: CC(C)NC(=O)OCc1c(COC(=O)NC(C)C)c2sc3ccccc3n2c1-c1ccc(Cl)cc1 [Compound 20c]
A: 8.75

Q: Next compound up: CCNC(=O)OCc1c(COC(=O)NCC)c2sc3ccccc3n2c1-c1ccc(F)cc1 [Compound 19b]
A: 13.6

Q: Next compound up: CC(C)NC(=O)OCc1c(COC(=O)NC(C)C)c2sc3ccccc3n2c1-c1ccc(F)c(F)c1 [Compound 20d]
A: 30.8

Q: Next compound up: CCNC(=O)OCc1c(COC(=O)NCC)c2sc3ccccc3n2c1-c1ccc(F)c(F)c1 [Compound 19d]
A: 10.3

Q: Next compound up: COc1ccc(-c2c(COC(=O)NC(C)C)c(COC(=O)NC(C)C)c3sc4ccccc4n23)cc1 [Compound 20g]
A: 8.19

Q: Next compound up: CC(C)NC(=O)OCc1c(-c2ccc(F)cc2)c2sc3ccccc3n2c1COC(=O)NC(C)C [Compound 20b]
A: 33
